# Tested on: MAPKAPK5
# SETUP CONDITIONS: concentration: 1 μM, replicates: in singlicate; n = 1;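 note: KINOMEscan kinase panel screen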
PROPERTY MEASURED: %Inh

Example results:
[[record]]
compound = "c1ccc(-c2ccc3c(-c4ccnc(Nc5ccc6c(c5)OCCO6)n4)cnn3n2)cc1"
property_measured = "%Inh"
result_value = "13%"

[[record]]
compound = "CS(=O)(=O)CCNCc1ccc(-c2ccc3ncnc(Nc4ccc(OCc5ccccc5)c(Cl)c4)c3c2)o1.Cl"
property_measured = "%Inh"
result_value = "0%"

[[record]]
compound = "CSc1ccc(NC2=C(c3ccccc3Cl)C(=O)NC2=O)cc1"
property_measured = "%Inh"
result_value = "1%"

[[record]]
compound = "Cc1cc(N2CCC(NS(=O)(=O)c3ccc(F)cc3)CC2)nc(Nc2cccc(C#N)c2)n1.O=C(O)C(F)(F)F"
property_measured = "%Inh"
result_value = "0%"

[[record]]
compound = "COc1ccc(-c2oc3ncnc(N)c3c2-c2ccc(OC)cc2)cc1"
property_measured = "%Inh"
result_value = "0%"

[[record]]
compound = "COc1ccc(Nc2nccc(N3CCC(NC(=O)Nc4ccc5c(c4)OCO5)C3)n2)cc1 (centres unmarked)"
property_measured = "%Inh"
result_value = "0%"

[[record]]
compound = "Cn1ccc2ncnc(Nc3ccc(Oc4cccc(Cl)c4)c(Cl)c3)c21"
property_measured = "%Inh"
result_value = "14%"

[[record]]
compound = "Fc1cccc(COc2ccc(Nc3ncnc4sc(-c5ccc[nH]5)cc34)cc2Cl)c1"
property_measured = "%Inh"
result_value = "0%"

[[record]]
compound = "O=C(Nc1ccccc1)Nc1ccc(Oc2ccc3nccn3n2)cc1"
property_measured = "%Inh"
result_value = "0%"

[[record]]
compound = "CCCc1ccc(S(=O)(=O)NC2CCN(c3ccnc(Nc4ccc(OC)cc4)n3)C2)cc1 (centres unmarked)"
property_measured = "%Inh"
result_value = "0%"


*Q* Recorded %Inh for CC(C)(C)OC(=O)NC1CCCN(c2cc(-c3ccc4c(N)n[nH]c4c3)nc(N)n2)C1 (centres unmarked) , please?
*A* 0%

*Q* Quick one: %Inh for FC(F)(F)c1cc(Nc2nccc(-c3c(-c4ccc(Cl)cc4)nn4ncccc34)n2)ccc1Cl ?
*A* 0%

*Q* Fill blank: measured %Inh of the compound Nc1nc(-c2ccc3c(N)n[nH]c3c2)cc(N2CCC[C@@H](C(=O)Nc3ccccc3)C2)n1.O=C(O)C(F)(F)F.O=C(O)C(F)(F)F is ____.
*A* 0%

*Q* For COC(=O)c1c(-c2ccccc2)c2cc(Cl)ccc2c(=O)n1Cc1ccc(S(C)(=O)=O)cc1 , what is its reported %Inh?
*A* 0%

*Q* Would you kindly share the measured %Inh for CS(=O)(=O)CCNCc1nc(-c2ccc3ncnc(Nc4ccc(OCc5cccc(F)c5)c(Cl)c4)c3c2)cs1.Cl ?
*A* 0%

*Q* %Inh for Cn1ccc2ncnc(Oc3ccc(NC(=O)Nc4cccnc4)c(Cl)c3)c21 ?
*A* 0%

*Q* Look up %Inh for this compound: Clc1ccc(-c2cc(-c3c[nH]nc3-c3ccccn3)ccn2)cc1
*A* 0%

====

# Test system: ERK1
# Construct: gene MAPK3
# SETUP CONDITIONS: concentration: 1 μM, replicates: in singlicate; n = 1
Response key: TRUE means %Inh >= 1%; FALSE means %Inh < 1%.

[[record]]
compound = "COc1ccc(Nc2nccc(N3CCC(NC(=O)c4cccc(NC(C)=O)c4)C3)n2)cc1 (stereo not drawn)"
assigned_class = "FALSE"

[[record]]
compound = "O=C(NCCCN1CCCC1=O)c1cnc(NCc2cc(Cl)ccc2Cl)nc1NC1CCNCC1"
assigned_class = "FALSE"

[[record]]
compound = "Fc1cccc(COc2ccc(Nc3ncnc4cc[nH]c34)cc2Cl)c1"
assigned_class = "TRUE"

[[record]]
compound = "CC(=O)Nc1n[nH]c2ncc(-c3ccccc3)cc12"
assigned_class = "TRUE"

[[record]]
compound = "Nc1nc(-c2ccc3c(N)n[nH]c3c2)cc(N2CCC[C@@H](C(=O)Nc3ccccc3)C2)n1.O=C(O)C(F)(F)F.O=C(O)C(F)(F)F"
assigned_class = "TRUE"


*Q* I'd appreciate it if you could say whether Cc1cc(N2CCC(NS(=O)(=O)c3ccc(F)cc3)CC2)nc(Nc2cccc(C#N)c2)n1.O=C(O)C(F)(F)F has %Inh at least equal to 1%.
*A* FALSE

*Q* I'd appreciate it if you could say whether CCC(CC)(CC)n1cnc2c(N)ncnc21 has %Inh at least equal to 1%.
*A* FALSE

*Q* Record Nc1nc(-c2cccnc2)c(-c2ccnc3ccccc23)s1 ; criterion: %Inh no lower than 1%. Met?
*A* TRUE

*Q* Does %Inh meet or surpass 1% for Cn1cc(-c2ccc3c(c2)CCN3C(=O)Cc2cccc(C(F)(F)F)c2)c2c(N)ncnc21 ?
*A* FALSE

*Q* Check if %Inh >= 1% (inclusive). Item: Fc1ccc(Nc2nccc(-c3c(-c4ccc(Cl)cc4)nn4ncccc34)n2)cc1F
*A* TRUE

*Q* Is the recorded value of %Inh equal to or greater than 1% for this compound? CC(C)(C)OC(=O)NC1CCCN(c2cc(-c3ccc4c(N)n[nH]c4c3)nc(N)n2)C1 (stereo not drawn)
*A* FALSE

*Q* For this compound, is measured %Inh 1% or higher? Nc1nc(-c2ccccn2)c(-c2ccnc3ccccc23)s1
*A* FALSE

*Q* Quick check: does O=c1cc(N2CCOCC2)nc2n(Cc3cccc(Cl)c3)ccn12 have %Inh greater than or equal to 1%?
*A* FALSE

*Q* Is %Inh for COc1cc2c(Nc3cccc(NC(=O)c4ccccc4)c3)ncnc2cc1OCCCN1CCOCC1 at or above 1%?
*A* FALSE

====

# System: AKT1
# SETUP CONDITIONS: concentration: 1 μM, replicates: in singlicate; n = 1
PROPERTY MEASURED: %Inh (%)
Write the value in % as a bare number.

[[record]]
molecule = "O=C(CCO)NCCn1ccc2ncnc(Nc3ccc(Oc4cccc(C(F)(F)F)c4)c(Cl)c3)c21"
property_measured = "%Inh"
unit_of_measurement = "%"
result_value = 0

[[record]]
molecule = "CNc1nccc(-c2c(-c3ccc(F)cc3)ncn2CCCN2CCOCC2)n1"
property_measured = "%Inh"
unit_of_measurement = "%"
result_value = 18

[[record]]
molecule = "CN1CCC(n2cnc(-c3ccc(F)cc3)c2-c2ccnc(NC3CCNCC3)n2)CC1"
property_measured = "%Inh"
unit_of_measurement = "%"
result_value = 0


Moving on to another molecule below.
*Q* Please look up its %Inh: CCn1c(-c2ccncc2)nc2cnccc21
*A* 0

====

# Tested on: CLK1
# SETUP CONDITIONS: concentration: 1 μM, replicates: in singlicate; n = 1
PROPERTY MEASURED: %Inh (%)
Hi! Could you send only the number? It should be in %, unit omitted.

Solved entries (count: 3):
[[record]]
compound = "FC(F)(F)c1cc(Nc2nccc(-c3c(-c4ccc(Cl)cc4)nn4ncccc34)n2)ccc1Cl [GW829351]"
target_entity = "CLK1"
result_value = 0

[[record]]
compound = "CCc1nc(-c2cccc(C)c2)c(-c2ccnc(NC(=O)c3ccccc3)c2)s1"
target_entity = "CLK1"
result_value = 0

[[record]]
compound = "Fc1cccc(COc2ccc(Nc3ncnc4cc[nH]c34)cc2Cl)c1"
target_entity = "CLK1"
result_value = 7


*Q* Could you tell me which %Inh is on file for Clc1cccc(-c2nc(Nc3ccncc3)c3ccccc3n2)c1 [GW873004] ?
*A* 14

*Q* Query (compound): NC(=O)c1sc(-n2cnc3ccccc32)cc1OCc1ccccc1F [GSK1024306] ; field requested: %Inh
*A* 37

*Q* Recorded %Inh for COc1ccc(NC(=O)c2ccc(-c3cc(-c4nnc(C)o4)ccc3C)cc2)cc1 [GW595885] , please?
*A* 17

*Q* // lookup %Inh for Cn1ccc2ncnc(Oc3ccc(NC(=O)Nc4cccnc4)c(Cl)c3)c21
*A* 0

*Q* Which measured %Inh value corresponds to COc1ccc(Nc2nccc(N3CCC(NC(=O)Nc4ccc5c(c4)OCO5)C3)n2)cc1 (stereo not shown) [GSK1379745] ?
*A* 15

*Q* Need %Inh, item CNc1nccc(-c2c(-c3ccc(F)cc3)ncn2CCCN2CCOCC2)n1 [SB-222516]
*A* 4

*Q* Which %Inh is reported for this compound? CC(C)(C)c1ccc(-n2cnc3c(N)ncnc32)cc1 [SKF-97263]
*A* 36

*Q* Using the record for c1ccc(-c2ccc3c(-c4ccnc(Nc5ccc6c(c5)OCCO6)n4)cnn3n2)cc1 [GW818941] , report its %Inh.
*A* 52

*Q* Form field: reported %Inh of FC(F)(F)c1ccc(-c2nn3ncccc3c2-c2ccnc(Nc3cccc(C(F)(F)F)c3)n2)cc1 [GW828205]
*A* 4

*Q* Suppose we examine the compound Cc1cccc(-c2nc(Nc3ccc4[nH]nnc4c3)c3ccccc3n2)n1 [GW867587] ; what %Inh value has been reported?
*A* 0

*Q* What does the data say about its %Inh? Entry: O=C(Nc1ccccc1)Nc1ccc(Oc2ccc3nccn3n2)cc1
*A* 30

*Q* For the compound OCCOCCn1ccc2ncnc(Nc3ccc(Oc4cccc(Cl)c4)c(Cl)c3)c21 , what %Inh is on record?
*A* 0

*Q* Look up %Inh: Nc1nc(-c2cccnc2)c(-c2ccnc3ccccc23)s1 [GW684083]
*A* 14

*Q* State the recorded %Inh for this entry: O=C(Nc1ccccc1F)NC1CCN(c2ccnc(Nc3ccc(F)cc3)n2)C1 (stereo not shown) [GSK1379722]
*A* 21

*Q* Give the measured %Inh of CC(=O)Nc1n[nH]c2ncc(-c3ccccc3)cc12 [SB-548492] .
*A* 41

*Q* Consider the compound Cn1cc(-c2ccc3c(c2)CCN3C(=O)Cc2cccc(C(F)(F)F)c2)c2c(N)ncnc21 [GSK2606414] and give its measured %Inh.
*A* 22
